- TARGET_SYSTEM: T1, HLA-A*03:01 (human)
- T1 construct: Peptide-receptive MHC class I monomer made by UV cleavage of a UV-sensitive ligand
- ASSAY_INFO: UV ligand exchange ELISA; exchange yield grade
- Excerpt: Candidate peptides for T cell based therapies according to the present invention were further tested for their MHC binding capacity (affinity). The individual peptide-MHC complexes were produced by UV-ligand exchange, where a UV-sensitive peptide is cleaved upon UV-irradiation, and exchanged with the peptide of interest as analyzed. Only peptide candidates that can effectively bind and stabilize the peptide-receptive MHC molecules prevent dissociation of the MHC complexes. […]
Would you kindly list peptide exchange yield for each of these binders?

Worked cases, answers included:
binder=RVFPSPMRI endpoint="peptide exchange yield" test_result="20 to 50%"
binder=HSYSSPSTK endpoint="peptide exchange yield" test_result="50 to 75%"
binder=LLNRHILAH endpoint="peptide exchange yield" test_result="50 to 75%"

Now, please, on to the next binder.
**Query** // peptide exchange yield lookup, key: GLLEEALFY
**Result** 20 to 50%
